System: T-47D breast
Experiment: NCI-60 one-dose screen, 48 h (100 = growth as untreated, 0 = no growth, -100 = all killed)
Conditions: 10 µM unless noted
Protocol: Growth inhibition of the T-47D human tumor cell line is measured as a screen for anti-cancer activity. Cells are grown in 96 well plates and exposed to the test compound for 48 hours. Compounds are tested at a single concentration, which is 10^-5 M for most compounds. The reported endpoint is percent growth (GI% or GIPRCNT), where numbers from 0 - 100% represent growth inhibition, and numbers from -100% - 0 represent cell death. For example, a value of 40 represents 60% growth inhibition. […]
Compounds without any hit were thinned out: in the full panel of roughly 83,000, 20% have a hit.
observed_property: growth (%)

[[record]]
compound = "O=C1CSC2=NCCN12"
observed_property = "growth"
value_unit = "%"
data_value = 111

[[record]]
compound = "CCCCCCCCCCCCCCCc1ccc(N)c(OC2OC(CO)C(O)C(O)C2O)c1 (configuration not stated)"
observed_property = "growth"
value_unit = "%"
data_value = 104

[[record]]
compound = "OCC1OC(O)C(O)C(O)C1O (configuration not stated)"
observed_property = "growth"
value_unit = "%"
data_value = 102

[[record]]
compound = "Cc1ccc(S(=O)(=O)c2ccccc2)cc1"
observed_property = "growth"
value_unit = "%"
data_value = 49.7

[[record]]
compound = "CCOC(=O)c1c(C)cc(=O)oc1C"
observed_property = "growth"
value_unit = "%"
data_value = 102

[[record]]
compound = "C/C(=C\\c1ccccc1)c1ccccn1"
observed_property = "growth"
value_unit = "%"
data_value = 94.7

[[record]]
compound = "O=C(/C=C/c1ccccc1)c1ccccc1"
observed_property = "growth"
value_unit = "%"
data_value = 64.6


# credit: PubChem BioAssay (NCI)
